Assay: Confirmatory screen NINDS Rhodamine qHTS for Zika virus inhibitors (AID 1347161); further: nearly all actives have a fitted effect of over 60% in size
Conditions: purified enzyme assay, Rhodamine110 substrate fluorescence, 15 min; series mostly up to 114 µM
Records with an inconclusive call do not appear. Activity calls are given as the source filed them. The call rests on the fitted dose curve; in most records, active means well fitted inhibition curve with a large enough effect; inconclusive means small, poorly fitted or top-dose-only effect; inactive means no such curve, though single readings can be large or run the other way.
Give one outcome, nothing more. List: 1.0 for active, 0.0 for inactive

// known answers, use as guide
In [3]: df
Out[3]:
                                   molecule  group
0  CC(=O)N1c2ccc(-c3ccc(C(=O)O)cc3)cc2C(Nc2ccc(Cl)cc2)CC1C (stereo not given)    1.0
1  COc1ccc(S(=O)(=O)c2c(Nc3ccc(C)cc3)sc(C(=O)c3ccc4c(c3)OCO4)c2N)cc1    0.0

Dear all, I need the recorded test outcome for CC1(C(=O)O)NCCc2cc(O)c(O)cc21 (stereo not given) , thank you.
1.0

Dear all, I need the recorded test outcome for "CCCCOC(=O)c1ccc(NC(=O)c2ccc3c(c2)CCN3S(=O)(=O)c2ccccc2)cc1" , thank you.
0.0

Dear all, I need the recorded test outcome for "Nc1c(S(=O)(=O)O)cc(Nc2ccc(Nc3nc(Cl)nc(Nc4ccc(S(=O)(=O)O)cc4)n3)c(S(=O)(=O)O)c2)c2c1C(=O)c1ccccc1C2=O" , thank you.
1.0

###

Tested on: Dd2
Test: qHTS profiling for inhibitors of Plasmodium falciparum proliferation (AID 504749); further: nearly all actives have a fitted effect of over 60% in size
Conditions: P. falciparum in erythrocytes, SYBR Green DNA, 72 h; series mostly up to 28.7 µM
Inconclusive results are not listed. The source made the active and inactive calls. Calls come from the whole dose curve; as a rule, active = well fitted inhibition curve with a large enough effect; inconclusive = small, poorly fitted or top-dose-only effect; inactive = flat fitted curve, though single readings scatter.
Give one outcome, nothing more. List: yes (1) = active, no (0) = inactive

// known answers, use as guide
>>> print(df.to_string())
                                   molecule    group
0  O=C(CC1NCCC[C@H]1O)Cn1cnc2cc(Br)c(Cl)cc2c1=O (stereo partly specified)  yes (1)
1  O=C1c2cccc3c2[C@@H](CCC3)CN1[C@@H]1CN2CCC1CC2  yes (1)
2  CN1CCN(CCC=C2c3ccccc3Sc3ccc(S(=O)(=O)N(C)C)cc32)CC1  yes (1)
3  C/C=C1\C2C=C(C)CC1(N)c1ccc(=O)[nH]c1C2 (stereo unspecified)   no (0)
4  CCOC(=O)C(CCc1ccccc1)NC1CCc2ccccc2N(CC(=O)O)C1=O (stereo unspecified)  yes (1)

Dear all, I need the recorded test outcome for "COC(=O)[C@@H]1[C@@H]2C[C@H]3c4[nH]c5ccccc5c4CCN3C[C@@H]2CC[C@@H]1O" , thank you.
no (0)

###

Test: qHTS for Inflammasome Signaling Inhibitors: IL-1-beta AlphaLISA screen against the NCATS CANVASS Library (AID 1347379);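 further: human THP-1 cells primed with LPS then triggered with ATP; secreted IL-1B measured as AlphaLISA emission at 615 nm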
Conditions: THP-1 LPS/ATP, IL-1B AlphaLISA secretion, 16 h; series mostly up to 57.5 µM
Inconclusive results are not listed. The source made the active and inactive calls. Calls come from the whole dose curve; as a rule, active = well fitted inhibition curve with a large enough effect; inconclusive = small, poorly fitted or top-dose-only effect; inactive = flat fitted curve, though single readings scatter.
Give one outcome, nothing more. List: active, inactive

Dear all, I need the recorded test outcome for "C=C1C(=O)O[C@H]2C[C@H](C)[C@@H]3CC(=O)C(C)=C3[C@H](O)[C@H]12" , thank you.
active

Dear all, I need the recorded test outcome for Oc1ccc(/C=C2/c3cc(O)cc(O)c3C(c3ccc(O)cc3)[C@H]2c2cc(O)cc(O)c2)cc1 (some centres undefined) , thank you.
inactive

Dear all, I need the recorded test outcome for "O=C(O)Cc1c[nH]c2ccccc12" , thank you.
inactive

Dear all, I need the recorded test outcome for "C[C@@]12CCC[C@@](C)(C(=O)O)[C@H]1C[C@@H](O)[C@]13C[C@H]4C[C@H](O[C@@]4(C)C1)[C@@H]23" , thank you.
inactive

###

Biological target: DNA dC->dU-editing enzyme APOBEC-3G (Homo sapiens)
Experiment: qHTS for inhibitors of Vif-A3G interactions: Validation (AID 588379)
Conditions: Vif-A3G protein interaction assay; series mostly up to 46.1 µM
Activity calls are given as the source filed them. The call rests on the fitted dose curve; in most records, active means well fitted inhibition curve with a large enough effect; inconclusive means small, poorly fitted or top-dose-only effect; inactive means flat fitted curve, though single readings scatter. Residues, ends and D or L forms follow the SMILES beside them.
Give one outcome, nothing more. List: 1 (active), 0 (inactive)

// known answers, use as guide
                                   compound  group
0                         CCNCCCNCCCNCCCNCC      0
1  COC(=O)[C@H]1[C@@H]2C[C@H]3c4[nH]c5ccccc5c4CCN3C[C@@H]2CC[C@@H]1O      0
2  CNC(=O)[C@H]1O[C@H](n2cnc3c(NCc4cccc(I)c4)ncnc32)[C@@H](O)[C@@H]1O      0
3          O=C(O)[C@H]1CN(CCCP(=O)(O)O)CCN1      0
4  CC(C)C[C@H](NC(=O)N1CCCCCC1)C(=O)N[C@H](Cc1cn(C)c2ccccc12)C(=O)N[C@H](Cc1ccccn1)C(=O)O      0
5  CC(=O)NCC(=O)N[C@H](CCC(=O)O)C(=O)O (HELM PEPTIDE1{[ac].G.[dE]}$$$$V2.0)      0

Dear all, I need the recorded test outcome for "N[C@@H](C(=O)O)c1ccc(C(=O)O)c(C(=O)O)c1" , thank you.
0

Dear all, I need the recorded test outcome for "CCOC(=O)C1=C(C)NC(C)=C(C(=O)OC)[C@H]1c1cccc([N+](=O)[O-])c1" , thank you.
0

Dear all, I need the recorded test outcome for "CN(C)c1ccc(/C=C2/C(=O)Nc3ccccc32)cc1" , thank you.
1

###

Tested on: Zika virus NS2B-NS3 protease
Assay: Primary screen GU AMC qHTS for Zika virus inhibitors (AID 1347154);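 further: 0% = no-inhibitor control and -100% = no-enzyme control; nearly all actives have a fitted effect of over 70% in size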
Details: Zika NS2B-NS3 unlinked protease, AMC fluorogenic substrate; series mostly up to 54.1 µM
Results filed as inconclusive are left out. Activity calls are given as the source filed them. The call rests on the fitted dose curve; in most records, active means well fitted inhibition curve with a large enough effect; inconclusive means small, poorly fitted or top-dose-only effect; inactive means flat fitted curve, though single readings scatter.
assay-endpoint: activity change, negative = inhibition

Examples with answers:
                                   molecule                          assay_endpoint                         result
0  NC(=NC1C2CC3CC(C2)CC1C3)Nc1ccc(I)cc1 (stereo unspecified)  activity change, negative = inhibition                       inactive
1      CCCCCCCC(=O)OC[C@H](CO)OC(=O)CCCCCCC  activity change, negative = inhibition  4.76% [at 6.83 µM] (inactive)
2  c1ccc(CN(CCN(Cc2ccccn2)Cc2ccccn2)Cc2ccccn2)nc1  activity change, negative = inhibition                       inactive
3  CC(C)(C)NC[C@H](O)COc1cccc2[nH]c(=O)[nH]c12  activity change, negative = inhibition                       inactive
4  N[C@H](C(=O)O)C1C(C(=O)O)C1C(=O)O (stereo partly specified)  activity change, negative = inhibition                       inactive

Tell me measured activity change, negative = inhibition for "COc1ccc(/C=C\C(=O)Nc2ccccc2C(=O)O)cc1OC" please.
inactive

###

Test system: Tov112D
Test: Primary qHTS to identify gynecologic anti-cancer compounds using libraries of approved drugs and bioactive compounds (AID 1345084); further: on the % scale 0 is the no-effect control and ±100 the full control effect; nearly all actives have a fitted effect of over 55% in size
Settings: Gynecologic cancer cell panel viability, ATPlite luminescence, 48 h; series mostly up to 57.5 µM
Records with an inconclusive call do not appear. Calls of active or inactive are those of the source. The call rests on the fitted dose curve; in most records, active means well fitted cell-killing curve with a large enough effect; inconclusive means small, poorly fitted or top-dose-only effect, or effect the other way; inactive means flat fitted curve, though single readings scatter.
Give one outcome, nothing more. List: t = active, f = inactive

compound	group
CC(=O)Nc1ccc(C(=O)Nc2ccccc2N)cc1	f

Next up:
Dear all, I need the recorded test outcome for CC1(CO)CCCC2(C)C1C(OC(=O)c1ccccc1)C=C1C(=O)OCC12O (stereo not given) , thank you.
f

###

Assay: 10-beta competent E. coli microbial cell viability qHTS against the NCATS CANVASS Library (AID 1347376); further: 0% is about no effect
Details: E. coli 10-beta viability, BacTiter-Glo ATP luminescence, overnight; series mostly up to 46.1 µM
Description: Natural products and their derivatives continue to be wellsprings of nascent therapeutic potential. […] To address this issue, the Canvass library of natural products was assembled (https://tripod.nih.gov/canvass), in collaboration with academic and industry researchers, for quantitative high-throughput screening (qHTS) across a diverse set of cell-based and biochemical assays. […]
Results filed as inconclusive are left out. Active and inactive are the calls of the source. Calls come from the whole dose curve; as a rule, active = well fitted curve in the direction sought with a large enough effect; inconclusive = small, poorly fitted or top-dose-only effect, or effect the other way, or another doubt; inactive = no such curve, though single readings can be large or run the other way. Peptide text beside a SMILES is read from it. * marks the point of attachment. Octanoyl = CCCCCCCC(=O)*
assay-endpoint: activity change, negative = cytotoxic

In [3]: df
Out[3]:
                                   compound                         assay_endpoint    result
0  COc1cc(/C=C2/C(=O)N(c3ccc(O)cc3C(=O)O)[C@H](c3ccc(O)c(OC)c3)C2C(=O)Nc2ccc(O)cc2C(=O)O)ccc1O (stereo not given in full)  activity change, negative = cytotoxic  inactive
1  Oc1ccc([C@H]2Oc3ccc(/C=C/c4cc(O)cc(O)c4)cc3C2c2cc(O)cc(O)c2)cc1 (stereo not given in full)  activity change, negative = cytotoxic  inactive
2                           OCc1ccc2ocnc2c1  activity change, negative = cytotoxic  inactive
3  CCCCCCCC(=O)N[C@@H](CC(C)C)C(=O)N[C@H](C=O)CCC(=O)O (Octanoyl-Leu-Glu-aldehyde)  activity change, negative = cytotoxic  inactive
4  CC(=O)[C@@H]1[C@@H](O)C[C@H]2[C@]3(C)CC[C@H]4C(C)(C)CCC[C@]4(CO)[C@H]3C[C@H]3OC(=O)[C@@H]1[C@@]32C  activity change, negative = cytotoxic  inactive

--- query ---
Tell me measured activity change, negative = cytotoxic for "COc1ccc2cc(NC(=O)C3=NO[C@H]4[C@H](O)C=C[C@@H](Cl)[C@@]4(O)C3)c(=O)oc2c1OC" please.
inactive
